For each of the binders below, state its competition matrix cell (no name or unit printed).
Molecular target: T1, human CD47 extracellular domain with a histidine- (HIS-) tag (Sino Biological, China) (human, UniProt Q08722 19-139)
T1 construct: extracellular domain; also called huCD47; huCD47 protein (Sino Biological, China 10161-H08H); not shown: histidine tag
Assay: competition ELISA on huCD47 after 27A
Numbers only.

Below, 3 binders whose answers are already recorded.
{"binder": "anti-CD47 AlivaMab antibody 85 (antibody, IgG1, V domains shown, Chimeric AlivaMab Mouse mAb from hybridoma: human V, CH1 and upper hinge, mouse middle hinge, CH2 and CH3, human kappa light chain; also called clone 85; mAb 85) VH: QVQLQESGPGLVKASETLSLTCTVSGGSISGYYWSWIRQPAGKGLEWIGRIYNSGSTNYNPSLKSRVTMSVDTSKNQFSLKLSSVTAADTAVYYCARQTYLDYWGQGTLVTVSS VL: DIQMTQSPSAMSASVGDRVTITCRASQGISIYLAWFQQKPGKVPKRLIYAASSLQSGVPSRFSGSGSGTEFTLTISSLQPEDFATYYCLQHNSYPLTFGGGTKVEIK", "quantitative-result": 98}
{"binder": "anti-CD47 AlivaMab antibody 164 (antibody, IgG1, V domains shown, Chimeric AlivaMab Mouse mAb from hybridoma: human V, CH1 and upper hinge, mouse middle hinge, CH2 and CH3, human kappa light chain; also called clone 164; mAb 164) VH: QVQLQESGPGLVKPSETLSLTCTVSGGSISSYYWSWIRQPPGKGLEWIGYVYYSGGTNYNPSLKSRVTISVDTSKNQFSLKLSSVTAADTAVYYCARKRGTFDYWGQGTLVTVSS VL: DIQMTQSPSSVSASVGDRVTITCRASQGISSWLAWYQQKPGKAPKLLIYAASSLQSGVPSRFSGSGSGTDFTLTISSLQPEDFATYFCQQANSFPLTFGGGTKVEIK", "quantitative-result": 108}
{"binder": "anti-CD47 AlivaMab antibody 107 (antibody, IgG1, V domains shown, Chimeric AlivaMab Mouse mAb from hybridoma: human V, CH1 and upper hinge, mouse middle hinge, CH2 and CH3, human kappa light chain) VH: QVQLQESGPGLMKPSETLSLTCTVSGGSISSYYWTWIRQPPGKGLEWIGYIYYSGSTNYNPSLKSRVTISVDTSKNQFSLKLSSVTAADTAVYYCARGRGALTAWGQGTLVTVSS VL: DIQLTQSPSFLSASVGDRVTITCRASQDIGSYLAWCQQKPGKAPKLLIYAASTLQGGVPSRFSGSGSGTEFTLTISSLQPEDFATYYCQQLNSYPLTFGGGTKVEIK", "quantitative-result": 106}

Consider now this further binder.
Reported competition matrix cell (no name or unit printed) for anti-CD47 AlivaMab antibody 161 (antibody, IgG1, V domains shown, Chimeric AlivaMab Mouse mAb from hybridoma: human V, CH1 and upper hinge, mouse middle hinge, CH2 and CH3, human kappa light chain; also called clone 161; mAb 161) VH: QVQLQESGPGLVKPSETLSLTCTVSGGSISSYYWSWIRQPPGKGLEWIGYIYYSGSTNYNPSLKSRVTISVDTSKNQFSLKLSSVTAADTAVYYCARSRYFDLWGRGTLVTVSS VL: DIQMTQSPSAMSTSVGDRVTITCRASQGISNFLAWFQQKPGKVPKRLIYAASSLQSGVPSRFSGSGSGTEFTLTISSLQPEDFATYYCLQHNSYPYTFGQGTKLEIK was 105
